Where do these numbers come from? They come from patent US10077238B2.

System: Jurkat cells
protocolNotes: CellTiter-Glo Luminescent Cell Viability Assay (ATP), Jurkat
Type: cell-based
details: 24 hours exposure, mean ± SD of triplicates
Procedure: Assessment of Cellular Toxicity (Toxilight Assay and CellTiter-Glo Assay) Purpose. […] The CellTiter-Glo assay directly determines the key energy metabolite ATP, resulting in sensitive quantitation of the number of healthy cells in culture. […] The test compounds and controls were exposed to the cells for 24 hours respectively at 37° C. Then adenylate kinase activity was quantified in the supernatant of the cell cultures using the ToxiLight™ reagent. […]
experimentalReadout: CellTiter-Glo Jurkat % viability at 10 μM (%)
Answers are plain numbers, in %.

# compound, readingUnit, observedMeasurement
measured = [
    ("C[C@]12C(=O)N(c3cc(Cl)cc(Cl)c3)C(=O)[C@H]1[C@H]2c1ccc(OC(F)(F)F)cc1 (racemic) [4′g (racemate)]", "%", 111.4),
    ("CC12C(=O)N(c3cc(Cl)cc(Cl)c3)C(=O)C1C2(c1ccccc1)c1ccccc1 (single isomer, unassigned) [4b enantiomer A]", "%", 92.8),
    ("C[C@]12C(=O)N(c3cc(Cl)cc(Cl)c3)C(=O)[C@H]1[C@H]2c1ccc(Br)cc1 (racemic) [4′f (racemate)]", "%", 115.0),
    ("C[C@]12C(=O)N(c3cc(Cl)cc(Cl)c3)C(=O)[C@H]1C2(c1ccccc1)c1ccccc1 (racemic) [4b (racemate)]", "%", 96.8),
]

Consider the record given below.
Asked: Fill in reported CellTiter-Glo Jurkat % viability at 10 μM for this entry: C[C@]12C(=O)N(c3cc(Cl)cc(Cl)c3)C(=O)[C@H]1[C@H]2c1ccc(C#N)cc1 (racemic) [4′h (racemate)]
Given back: 112.6
